# System: SK-MEL-2 melanoma
# Protocol details: NCI-60 one-dose screen, 48 h
# Conditions used: 10 µM unless noted
About 83,000 compounds went through this panel and 20% of them were active in at least one assay; those are over-represented in the sample as a whole. The source made the active and inactive calls. How the source made its calls: active means growth percent below 10; inactive means the rest.
Answer with one of the outcomes T (active), F (inactive)

Inquiry: Record request — test call for N#Cc1cc(-c2ccc3ncnc(N4CCc5cc(F)c(Cl)cc54)c3c2)cnc1N
Reply text: F

Inquiry: Record request — test call for COc1ccc2[nH]c(=O)c(CSc3ccccc3Nc3nccc(-c4ccc5c(c4)OCO5)n3)cc2c1
Reply text: F

Inquiry: Record request — test call for Fc1ccc(N2CC(Cn3c(C(F)(F)F)cc4c(Cl)ncnc43)C2)c(F)c1
Reply text: T

Inquiry: Record request — test call for COc1ccc(/C=C/c2nc3ccccc3n3c(-c4cccc([N+](=O)[O-])c4)nnc23)cc1
Reply text: T

Inquiry: Record request — test call for CN(C)c1nc(NCCNS(=O)(=O)c2ccc(C(=O)/C=C/c3ccccc3)cc2)nc(N2CCOCC2)n1
Reply text: F

Inquiry: Record request — test call for CCCCCCCCCc1ccc(C(=O)Nc2cc(C)ccc2C(=O)OC)cc1
Reply text: F

Inquiry: Record request — test call for COc1ccc(-c2cc(C(=O)N=Nc3c(O)[nH]c4ccc(Cl)cc34)c3ccccc3n2)cc1
Reply text: F

Inquiry: Record request — test call for O=C1Nc2ccccc2/C1=C\c1ccc(OCC(=O)c2ccc(Br)cc2)cc1
Reply text: F

Inquiry: Record request — test call for Cc1ccccc1NC(=O)c1cccc(NC(=O)CCl)c1
Reply text: F

Inquiry: Record request — test call for COc1ccc2nc(NC(=O)c3ccc(N(C)C)cc3)sc2c1
Reply text: F

Inquiry: Record request — test call for CCOc1ccc(-c2cc(-c3cc(C(C)C)c(O)cc3C)nn2-c2ccc(S(N)(=O)=O)cc2)cc1
Reply text: F

Inquiry: Record request — test call for Nc1ccc(-c2ccc3ncnc(N4CCc5cc(F)c(Cl)cc54)c3c2)cn1
Reply text: F

Inquiry: Record request — test call for c1ccc(CSc2nnc(-c3ccc4nc(-c5ccccc5)[nH]c4c3)o2)cc1
Reply text: F

Inquiry: Record request — test call for O=C(c1ccc(Cl)cc1)C1[C@H](c2ccccc2Cl)[C@@H](c2ccccc2)NC12C(=O)Nc1ccccc12 (some centres undefined)
Reply text: T

Inquiry: Record request — test call for O=C(CSc1nc2c(c(=O)[nH]1)CCCC2)Nc1ccccc1C(=O)O
Reply text: F

Inquiry: Record request — test call for COc1cc(/C=C/C(=O)c2cnn(-c3cc(=O)[nH]c4ccc(Cl)cc34)c2C)cc(OC)c1OC
Reply text: T

Inquiry: Record request — test call for COc1cc(C2CC(c3cc(OC)c(OC)c(OC)c3)=Nc3c(N)nc(N)nc3N2)ccc1Oc1nc(Nc2ccc(F)cc2)nc(N(C)C)n1 (centres undefined)
Reply text: F

Inquiry: Record request — test call for Cc1cccc(NCC(=O)N2CCN(c3ncnc4c3cnn4-c3ccccc3)CC2)c1
Reply text: F

Inquiry: Record request — test call for CCCCCCCCc1ccc(C(=O)Nc2ccc(C)cc2C(=O)O)cc1
Reply text: F

* * *

# System: U251 CNS
# Protocol details: NCI-60 one-dose screen, 48 h
# Conditions used: 10 µM unless noted
This is part of a sample that, as a whole, favours compounds with a hit. Of some 83,000 tested, about 20% had one in any assay. Activity calls are given as the source filed them. The calls were made as follows: active = growth percent below 10; inactive = the rest.
Answer with one of the outcomes y for active, n for inactive

Inquiry: Record request — test call for CC[C@@]12CC(C(=O)OC)=C3Nc4cc5c(cc4[C@@]34CCN(C[C@H]3O[C@H]31)[C@@H]24)[C@@H]1[C@H](O5)[C@@H](O)[C@@]2(CC)CC(C(=O)OC)=C3Nc4cc(O)ccc4[C@@]34CCN1[C@@H]24
Reply text: y

Inquiry: Record request — test call for O=CNc1ccc(-n2cnc3cc(-c4ccc(O)cc4)ccc32)cc1
Reply text: n

Inquiry: Record request — test call for O=C(CSc1nc2ccccc2c(=O)[nH]1)Nc1ccccc1C(=O)O
Reply text: n

Inquiry: Record request — test call for COc1ccc(C(=O)c2cc(C(C)=O)c3c(C)cc(C)cn23)cc1
Reply text: n

* * *

# Test system: MCF7 breast
# Protocol details: NCI-60 one-dose screen, 48 h (100 = growth as untreated, 0 = no growth, -100 = all killed)
# Conditions used: 10 µM unless noted
# Description: Growth inhibition of the MCF7 human tumor cell line is measured as a screen for anti-cancer activity. Cells are grown in 96 well plates and exposed to the test compound for 48 hours. Compounds are tested at a single concentration, which is 10^-5 M for most compounds. The reported endpoint is percent growth (GI% or GIPRCNT), where numbers from 0 - 100% represent growth inhibition, and numbers from -100% - 0 represent cell death. For example, a value of 40 represents 60% growth inhibition. […]
This is part of a sample that, as a whole, favours compounds with a hit. Of some 83,000 tested, about 20% had one in any assay.
Please respond with reported growth for every item in the list.
The reply should be a number in %, with the unit left off.

Inquiry: Write down the reported growth of NS(=O)(=O)c1ccc(Nc2nc(N/N=C/c3cc(Br)c(O)c(Br)c3)nc(Nc3ccccc3)n2)cc1 , test system: MCF7 breast.
Reply text: 37.7

Inquiry: Write down the reported growth of O=C(N/N=C/c1ccc(Br)o1)c1[nH]c2ccc(Br)cc2c1-c1ccccc1 , test system: MCF7 breast.
Reply text: 0.0933

Inquiry: Write down the reported growth of C=CC[n+]1cccc2c3ccccc3ccc21 , test system: MCF7 breast.
Reply text: 25.2

Inquiry: Write down the reported growth of N#C/C(=C1/C(=O)Nc2ccccc21)c1nnc(NC(=O)c2ccc(-n3c(=O)[nH]c4ccccc4c3=O)cc2)s1 , test system: MCF7 breast.
Reply text: 7.69

Inquiry: Write down the reported growth of CC1=C(C)C(=O)C(N2CCSCC2)=CC1=O , test system: MCF7 breast.
Reply text: 99.6

Inquiry: Write down the reported growth of Cc1ccc(C2CC(c3ccc(NC(=S)Nc4ccccc4)cc3)=NN2c2ccc(S(N)(=O)=O)cc2)cc1 (centres undefined) , test system: MCF7 breast.
Reply text: 2.64

Inquiry: Write down the reported growth of COc1ccc(-c2cc(-c3ccccc3)c(C#N)c(=O)[nH]2)cc1S(N)(=O)=O , test system: MCF7 breast.
Reply text: 103

Inquiry: Write down the reported growth of COc1ccc(-c2nnc3c(/C=C/c4ccc(Br)cc4)nc4ccccc4n23)cc1 , test system: MCF7 breast.
Reply text: 0

Inquiry: Write down the reported growth of Cc1ccc(C(=O)Nc2cc(-n3cnc(F)c3)cc(C(F)(F)F)c2)cc1C#Cc1cnc2cccnn12 , test system: MCF7 breast.
Reply text: 38.8

* * *

Please respond with reported growth for every item in the list.
# System: OVCAR-3 ovarian
# Protocol details: NCI-60 one-dose screen, 48 h (100 = growth as untreated, 0 = no growth, -100 = all killed)
# Conditions used: 10 µM unless noted
About 83,000 compounds went through this panel and 20% of them were active in at least one assay; those are over-represented in the sample as a whole.
The reply should be a number in %, with the unit left off.

Inquiry: Write down the reported growth of CC(C)(C)OC(=O)N1CCC2(CC1)Oc1ccccc1[C@H]1CC(c3ccc(Br)cc3)=NN12 , test system: OVCAR-3 ovarian.
Reply text: 77.1

Inquiry: Write down the reported growth of CS(=O)(=O)Nc1cc(-c2ccc3ncnc(N4CCc5cc(F)c(Cl)cc54)c3c2)cnc1Cl , test system: OVCAR-3 ovarian.
Reply text: -22.6

Inquiry: Write down the reported growth of Cn1cc(-c2cc(N)n3nc(-c4c[nH]c5ccc(F)cc45)cc3n2)c2cc(Br)cnc21 , test system: OVCAR-3 ovarian.
Reply text: 109

Inquiry: Write down the reported growth of COc1ccc2[nH]c(O)c(N=Nc3nc(-c4ccccc4)cs3)c2c1 , test system: OVCAR-3 ovarian.
Reply text: -2.28

Inquiry: Write down the reported growth of Clc1ccc(-c2nc3c4c(-c5ccccc5)c(-c5ccccc5)n(Cc5ccccc5)c4ncn3n2)cc1 , test system: OVCAR-3 ovarian.
Reply text: 14.7

Inquiry: Write down the reported growth of COc1ccc(N=Nc2c(N)nn3c(N)c(C#N)c(-c4ccc(F)cc4)nc23)cc1 , test system: OVCAR-3 ovarian.
Reply text: 103

Inquiry: Write down the reported growth of O=C(N=Nc1c(O)[nH]c2ccc(Cl)cc12)c1ccc2nc(-c3ccc(Cl)cc3)[nH]c2c1 , test system: OVCAR-3 ovarian.
Reply text: -5.16

Inquiry: Write down the reported growth of Cc1cnc2ccc(Oc3ccccc3-c3ccccc3)nn12 , test system: OVCAR-3 ovarian.
Reply text: 120

Inquiry: Write down the reported growth of COc1ccc(C(=O)/C=C/c2ccc3c(c2)OCCO3)cc1S(N)(=O)=O , test system: OVCAR-3 ovarian.
Reply text: 68.1

Inquiry: Write down the reported growth of O=C1Nc2cc(-c3ccc(NS(=O)(=O)c4ccc([N+](=O)[O-])cc4)cc3)ccc2/C1=C/c1ccc[nH]1 , test system: OVCAR-3 ovarian.
Reply text: -29.4

Inquiry: Write down the reported growth of FC(F)(F)CN1CCN(CCn2c(C(F)(F)F)cc3c(Cl)ncnc32)CC1 , test system: OVCAR-3 ovarian.
Reply text: -47.4

Inquiry: Write down the reported growth of COc1ccc(C2=Nc3c(N)nc(N)nc3NC(c3ccc(Oc4nc(Nc5ccc(F)cc5)nc(N(C)C)n4)c(OC)c3)C2)cc1 (centres undefined) , test system: OVCAR-3 ovarian.
Reply text: 82.5

Inquiry: Write down the reported growth of Cc1ccc(NC(=O)N/N=C/c2c[nH]c3ccccc23)c(C)c1 , test system: OVCAR-3 ovarian.
Reply text: -33.2

Inquiry: Write down the reported growth of COc1ccc(N=Nc2c(N)nn3c(-c4cc5cc(Br)ccc5oc4=O)ccnc23)cc1 , test system: OVCAR-3 ovarian.
Reply text: 25.3

Inquiry: Write down the reported growth of CC(=O)c1c2c(c3ccc4c5ccccc5ccc4n13)C(=O)c1ccccc1C2=O , test system: OVCAR-3 ovarian.
Reply text: 108

Inquiry: Write down the reported growth of Cc1ccc(/C=C/C(=O)c2ccc(S(=O)(=O)NCCNc3nc(N(C)C)nc(N4CCOCC4)n3)cc2)cc1 , test system: OVCAR-3 ovarian.
Reply text: 109

Inquiry: Write down the reported growth of O=CNc1cccc(-n2cnc3cc(-c4ccc(O)cc4)ccc32)c1 , test system: OVCAR-3 ovarian.
Reply text: 26.8

Inquiry: Write down the reported growth of CC1=C(C(=O)Nc2ccccc2)C(c2cccc3ccccc23)n2c(nc3ccccc32)N1 (centres undefined) , test system: OVCAR-3 ovarian.
Reply text: 38.6

Inquiry: Write down the reported growth of COc1cc(CNC(=O)C[C@H](C)CCC=C(C)C)ccc1OCc1cn(-c2cccc(C(F)(F)F)c2)nn1 , test system: OVCAR-3 ovarian.
Reply text: 103
